assay.comment: soluble fraction after stress (log2 fold change); higher = more stays soluble; pooled small domains, quantitative proteomics
recorded.conditions: stress: pH 4
Quick rule: soluble fraction (log2) of at least -0.03 means 1, below that means 0.

# sequence, class.label
measured = [
    ("HMPVQPMDPSIEHISALTGKQFQAFPGQDHRAHMTAHLNFMSTNIVRNNPAVMGAIQKNILEHISLMAQEQ", 0),
    ("HMQSEESTHIGERMLNQALRAMHVEPSAVKEKQWEKLIRDYSVKNKQDILTDIGLGKRQSVMVAHQLLAI", 1),
    ("HMSLLQTRQRHEALAALGFFKGDVAAEWSAASTEALRAAQASLGIRVDGKWGPQTEDAIGKALAERQG", 1),
    ("HMKMNFNEEEQKLLSEANVLVETNKTYTDDEVKGFSNKIVEHIMTFSKTDIPKVKSKFDPILFKI", 0),
    ("HMGDTIGEQKAKEIALEHAGLKSSDVTFIRAVLEYDDRNWEYDVEFYDADTYTEYDYEIDAHTGKILSFDH", 0),
    ("HMFAQDKKFITYKVKEGETVQSISKALSITPYDLLKLNPDIKDNVSQDDLLIIPNKQYDPLGDI", 1),
    ("HMGRKPVSPEIVERVLQLAKSNPDWGYEHIAGTMRYLGYNVSATTIRHILEANGIVPDPERRL", 0),
    ("HMADPLQLLEQQRQDYIQAVTEYLNSHPNAKPIWDVMKKDAGYGDMKLTDIPLGILKKLYITLT", 0),
    ("HMPHILEITSSKILDELQDEKKMVYFHFEKQSNQYVYRLIFNSKNELMEFKKSLEKNSSILDVRADM", 0),
    ("HMGDYDHYVVKVEDTLLNWLVTNVTTMSRNKLKDILAGQGIKVNGKITTKYDYPLTPGMKIAISKTKR", 0),
]

Attention now turns to another entry.
In: Check the entry "HMQADTATITGNGVNMRSGPGTNYQIIDTIPKGTVAEVLSQQDGWVKIYSARISGWVSASYVEIKQT" : does soluble fraction (log2) equal or exceed -0.03?
Out: 1

----------
assay.comment: soluble fraction after stress (log2 fold change); higher = more stays soluble; pooled small domains, quantitative proteomics
recorded.conditions: stress: pH 4
Quick rule: soluble fraction (log2) of at least 0.01 means 1.0, below that means 0.0.

# sequence, class.label
records = [
    ("HMTFSDKIRELRKQKGVSQAVVAEYLGITKQAYSLYETGKREPDFDSLLKLAEYFGTDTDSLLY", 0.0),
    ("HMGKGVDKIMKMADDYSYGKIAGKTVDVMTAKLFQAAYNKAPQKAKDKVDKMNEKQLYIFMMNLWKRF", 1.0),
]

In: Check the entry "HMDSTLTNEIYNELYRAITHQELKPGQNLTLTMLKKQFNVSHTPIREALTRLSADGLVTYHPNKGMKVT" : does soluble fraction (log2) equal or exceed 0.01?
Out: 1.0

In: Check the entry "HMEENNIVIYITGAVKKEGIYEIKENSRISDAIEAAGGLLENANIKDINLAYIIEDGVKIYIPTNEEVNK" : does soluble fraction (log2) equal or exceed 0.01?
Out: 0.0

In: Check the entry "HMEPPPSYSALLKQISSGKVKELQLVPARREVIVTYPDGRSATVAILANDQQILRTAEAAGTPLLVK" : does soluble fraction (log2) equal or exceed 0.01?
Out: 1.0

In: Check the entry "HMPELPEVETSRRGIEPHLVGATILHAVVRNGRLRWPVSEEIYRLSDQPVLSVQRRAKYLLLELQA" : does soluble fraction (log2) equal or exceed 0.01?
Out: 1.0

In: Check the entry "HMNGLPDLSRYTGVSIVDGLASVGSDSSFAYRAKIAETLGISDYKGSAGQNLEMIRKLGGKV" : does soluble fraction (log2) equal or exceed 0.01?
Out: 0.0

In: Check the entry "HMIVSEYIIIGGDKKEYGPVSMGEVGEWVQGGRANGDSKIKKVGTEEWGRLRDFPEFSAYLS" : does soluble fraction (log2) equal or exceed 0.01?
Out: 0.0

In: Check the entry "HMNTYVLPDALKSQLSVEDTGMLTKQLQALPETLAEGVLDSLSQMLSKNTLQNPVGWMLAVMKRAREGNFN" : does soluble fraction (log2) equal or exceed 0.01?
Out: 0.0

----------
assay.comment: soluble fraction after stress (log2 fold change); higher = more stays soluble; pooled small domains, quantitative proteomics
recorded.conditions: stress: pH 4
property.name: soluble fraction (log2)

# sequence, soluble fraction (log2)
rows = [
    ("HMQNDILIQADEIVGDYFDMDKEALKMNKQAVIADIEKRQATAQGDEASALHYAKQKVENEFEDDGSQKD", -0.233),
    ("HMGMYFTEMRKNEGLIALNGVAESNKRVSDLMDNLKDSSSFDAADIKAVKSGSGDASSLMDFELLVT", -0.452),
]

# sequence "HMAAEEAFPGGRIVQNAEENRLQILFDEIPGEDVRAALKSHGFRWSPKNKAWQRQLTQNAEYDARRILGI" ; its soluble fraction (log2) = -0.033

# sequence "HMPKRSKDEAELEFLEMLRDNQVDSTWSFGKIISQLGSTDPRYWMVDDDPLWKRQIFEKYLSNR" ; its soluble fraction (log2) = -1.79

# sequence "HMLDGFEVGMTVMKKSGTEIGFTGWPSFADKDELPIIERIDTSDSTLLLKFKDMSWWIKASLVEPS" ; its soluble fraction (log2) = -0.396

# sequence "HMNIEEAESILKEIKTVLTDKEYEVYTLRAKGFTYQEIASLLNTTTKSVDGALSRIKTKINNIK" ; its soluble fraction (log2) = 0.0204

# sequence "HMGLQDLFLNSLRKSKTPVTMFLVKGVKLQGVVTWFDNFSVLLRRDGMSQLVYKHSISTIMP" ; its soluble fraction (log2) = 0.22

# sequence "HMSKKLLVLQTSDDAKAKDVLSQNGYQLDDGDKLSIIETEQTKMADVIKLLSDNAIDIEDVQHVH" ; its soluble fraction (log2) = -0.116

----------
assay.comment: soluble fraction after stress (log2 fold change); higher = more stays soluble; pooled small domains, quantitative proteomics
recorded.conditions: stress: pH 4
Grouping key: soluble fraction (log2). Bins: low interval: < -0.6; middle interval: ≥ -0.6 and < 0.01; high interval: ≥ 0.01

Sample answers from the record:
# sequence, class.label
data = [
    ("HMRVTEIDYGAFMKMIEEKNIGEVKVEDYEIVFTDKDNKNIYKTGIMDDPDLTQRLYNSGAVFA", "low interval"),
    ("HMDRSLYVGDAVGFDSARGLMEIEVKNKFSVVAVSLKKKPSGNFITPLLRMEKKKGEAVTVAPGSGHR", "middle interval"),
    ("HMNRKILVLLAGKEQITDNVSVMQSIHRYAFINTATINKAQHEILIEKEEIRQEALTLIHEFLK", "high interval"),
    ("HMQKKYLAVKEYLLEQINSGAYQPDEPIPPEREMAAMLGVNRMTLRRAVEELMYEGLLIRKKGSGTFLTK", "low interval"),
    ("HMNEWSIDINLADEKQWTAKTKLSPAIIQNIIRYKNYLGGFTNLNQIKKVYGFTEANYYLLKPHLQLGK", "middle interval"),
]

In: Exam item: assign "HMDNEYDKVYQAALSKLEGYPRSSITTAVIKDVVAQTIKYFEIKNFGYEDTIINQLQSAFTVKSSS" to the correct category.
Out: high interval

In: Exam item: assign "HMSMHVHTPNPDFKPSNTNALQEGQLVEHPKFGFGKVQKIETEGLNKKASIQFEHFGEKTLLLSFAKLRII" to the correct category.
Out: middle interval

In: Exam item: assign "HMESGSSKINQDILETFTRGKKSLSISDISRLSGHHRHTVARYLDNLVSSGKLEMRQHGQKKKYYLSDIQP" to the correct category.
Out: high interval

In: Exam item: assign "HMSDGYETLVNMAKPFLNNSKQITENDITDAVNTVSVMLKKRYDMTDEDIRKAVSELLHFYA" to the correct category.
Out: low interval

In: Exam item: assign "HMTSPNPLIRSTTPGLETNKKGGIIVDENEMSTRENVFAGGDAVTGAATVILAMGAGKKAAAAIDAKLQN" to the correct category.
Out: high interval

In: Exam item: assign "HMIGVIVDEVDPDSSLKSGDIITEVNREVILNIDDFVGLVEQIQKTGRSSLLLKILRDKKSLWVTIQFV" to the correct category.
Out: high interval

In: Exam item: assign "HMTARYQQVEDYIVRRIQDGSWPPGHRLPSEHELVQQFGMSRMTVNRALRDLMQKGRIVRVAGVGSFVAQD" to the correct category.
Out: high interval

----------
assay.comment: soluble fraction after stress (log2 fold change); higher = more stays soluble; pooled small domains, quantitative proteomics
recorded.conditions: stress: pH 4
Entries annotated with measured soluble fraction (log2)
Lab note: write the figure by itself, no unit.

# sequence, observed.result
data = [
    ("HMYYDDEELDDYRGKASDAYTAAEVEQFEEVLTTMRPEEVHGWLRSLQLRGVALPDALKDEAYMIVSEQAE", -0.727),
]

# sequence "HMAQISDESALYDLVKSVLDANPQSIADYKAGRDRALGFLMGQAMKLSKGKANPPVINKILKEMLDK" ; its soluble fraction (log2) = 0.292

# sequence "HMNNVDIMGRMVYDDQHREVINFGKYKGVLVTEVLKKDPGYFSWIQQGDFPSDMKRIMMAIKLRM" ; its soluble fraction (log2) = -0.72

# sequence "HMKKLTNKQIIFFAEKLAHHSDFASKYSKVGESYEEFAIRLEKELNTPQKVEFYSSYLEKVGFK" ; its soluble fraction (log2) = -0.78

# sequence "HMKTLNKRQQDIINLAREEGFVTVEHLSEYFKVTQQTIRRDLGYLSENLYLARTYGGAFFQS" ; its soluble fraction (log2) = -0.535

# sequence "HMLLFSVADIVKRSKRILSFKTDAELAAYFGVSRSTLSNWIARNSIDFPLLLSKMKDVDYTWLILGKGTPG" ; its soluble fraction (log2) = -0.207

# sequence "HMTSTEQEILIEHMVDRLPALRKKYGISQTELGEKIGLSRQTISAIERKTTPLTWTTMLAILMFFT" ; its soluble fraction (log2) = -0.425
